# System Name: Influenza Hemagglutinin B (influenza B virus)
# Experiment: ELISA on Influenza Hemagglutinin B (1 ug/mL); 293 supernatant diluted 1:10
I'd be grateful if you could share measured ELISA signal for these entries.
Lab note: jot down the number only; don't add units.

Incoming: Provide one value: measured ELISA signal of F2-20 (VHH) VHH: QVQLVESGGGLVQAGGSLRLSCAASGRTFSRYAMGWFRQAPGKEREFVARISWSGDITYYADSVKGRFTISRDNAKNTVYLQMNSLKPEDTAVYYCAADAILRTRPPYESDYWGQGTQVTVSS
Outgoing: 1.58

Incoming: Fill in reported ELISA signal for this entry: F2-02 (VHH) VHH: QVQLVESGGGLVQAGGSLRLSCAASGRTFRSFAMGWFRQAPGKEREFVATISWWSNNTYYADSVKGRFTISRDIAKNTVYLQMNSLKPEDTAVYYCAADLGPWLTAGQYDYWGQGTQVTVSS
Outgoing: 0.826

Incoming: Dear colleague, please send me the reported ELISA signal for F1-04 (VHH) VHH: QVQLVESGGGLVQVGGSLRLSCAASERPSSNYAMGWFRQAPGKEQEFVAAIYWSGGGTAYGDSVKGRFTISKDNAKNTVYLQMNDLKPEDTGMYYCTTDHYGSWSYEYGSWGQGTQVTVSS when you can.
Outgoing: 1.47

Incoming: Fill in reported ELISA signal for this entry: F2-24 (VHH) VHH: QVQLVESGGGLVQAGGSLRLSCASSGHTFNSYVMGWFRQAPGKEREFVAAIRPSGVSTYYADSVKGRFTISRDNAKNTVSLEMNSLKPEDTAVYYCAGDRDHSMMAVRRLSSYRQWGRGTQVTVSS
Outgoing: 1.69
